tested on: PPARg homodimer (NR concentration 180 nM); test: PBM binding z-score (relative to random genomic background probes); higher = stronger binding; sequences stand for … in GC…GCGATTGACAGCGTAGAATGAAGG
Everything with PBM binding z-score lower than 1 is 0; everything else, including exactly 1, is 1.

Test whether the sequence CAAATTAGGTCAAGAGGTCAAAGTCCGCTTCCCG records PBM binding z-score of 1 or higher.
1

# check: PBM binding z-score of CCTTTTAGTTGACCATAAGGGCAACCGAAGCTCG is greater than or equal to 1
1

# check: PBM binding z-score of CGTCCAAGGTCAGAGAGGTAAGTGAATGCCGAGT is greater than or equal to 1
1

Exam item: decide whether the reported PBM binding z-score for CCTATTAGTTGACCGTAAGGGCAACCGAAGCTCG is at least 1.
1

Check this sequence for PBM binding z-score at or above 1: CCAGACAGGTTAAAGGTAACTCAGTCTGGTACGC
1

Dear colleague, could you confirm whether TTACCAAGGTGTAAGGTCGTTGATGCACGCCTTG has PBM binding z-score at or above 1?
0

Form field: PBM binding z-score at least 1? Entry: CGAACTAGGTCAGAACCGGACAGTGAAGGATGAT
0

Determine whether this sequence has PBM binding z-score no lower than 1: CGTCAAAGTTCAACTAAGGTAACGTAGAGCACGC
1

Is PBM binding z-score for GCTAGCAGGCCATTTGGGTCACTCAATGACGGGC at or above 1?
0

Reported PBM binding z-score at or above 1? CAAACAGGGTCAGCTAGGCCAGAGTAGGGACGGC
1

# check: PBM binding z-score of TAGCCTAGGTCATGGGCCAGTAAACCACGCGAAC is greater than or equal to 1
1

Given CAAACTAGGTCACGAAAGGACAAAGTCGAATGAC , state whether its PBM binding z-score is at least 1.
1

Assess whether reported PBM binding z-score for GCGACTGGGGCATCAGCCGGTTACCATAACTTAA sits at 1 or higher.
0

Hi team, for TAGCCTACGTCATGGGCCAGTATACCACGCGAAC , is the recorded PBM binding z-score at or above 1?
0

Tell me whether PBM binding z-score is at least 1 here: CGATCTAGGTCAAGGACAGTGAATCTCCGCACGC
1

Could you tell me if the measured PBM binding z-score of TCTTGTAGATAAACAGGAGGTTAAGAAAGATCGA reaches 1 or more?
0

// inclusive: PBM binding z-score at least 1? input: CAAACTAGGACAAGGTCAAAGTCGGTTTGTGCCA
1

Form field: PBM binding z-score at least 1? Entry: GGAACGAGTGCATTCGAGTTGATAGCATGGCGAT
0

Confirm if PBM binding z-score reported for the sequence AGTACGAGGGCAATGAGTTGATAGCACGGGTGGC is 1 or above.
0

Hi team, for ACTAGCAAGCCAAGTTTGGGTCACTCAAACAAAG , is the recorded PBM binding z-score at or above 1?
0

Form field: PBM binding z-score at least 1? Entry: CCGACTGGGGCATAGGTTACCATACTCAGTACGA
0

Is PBM binding z-score at least 1? Consider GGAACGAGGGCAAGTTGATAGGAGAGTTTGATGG
0

PBM binding z-score >= 1 for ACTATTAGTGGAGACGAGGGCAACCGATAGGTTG ?
0

Can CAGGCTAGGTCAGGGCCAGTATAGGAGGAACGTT be said to have PBM binding z-score at or above 1?
0
